Reference source: patent US12441732B2

assay: Pharmacokinetic experiment in rats after gavage; format: in vivo; settings: rat, blood, po; male SD rats, gavage 2 mg·kg^−1; read-out: AUC(0-4) within 8 h after administration
assay-endpoint: AUC(0-t) (ng·h/mL)
Quick note: give the figure in ng·h/mL, leave out the unit.

stdin: Input CCCCOC(=O)[N-]S(=O)(=O)c1cccc(-c2nc3c(CCC)nn(C)c3c(=O)[nH]2)c1.[K+] [potassium salt crystal form B] , output reported AUC(0-t).
stdout: 639

###

test: Dynamic solubility test in water, SGF, FaSSIF, FeSSIF at 37° C.; format: physicochemical; settings: simulated gastric fluid (SGF), simulated gastric fluid, thermodynamic from solid, SGF, 1 h, read-out: solubility (S)
assay-endpoint: solubility at 1 h (µg/mL)
// units = µg/mL; emit number, no label

stdin: Give the value of solubility at 1 h reported for the following: CCCCOC(=O)NS(=O)(=O)c1cccc(-c2nc3c(CCC)nn(C)c3c(=O)[nH]2)c1 [compound WYQ]
stdout: 5.6

stdin: Specify reported solubility at 1 h for the compound shown: CCCCOC(=O)[N-]S(=O)(=O)c1cccc(-c2nc3c(CCC)nn(C)c3c(=O)[nH]2)c1.[K+] [potassium salt crystal form B]
stdout: 6800

###

For each entry below, report its solubility at 4 h value.
test: Dynamic solubility test in water, SGF, FaSSIF, FeSSIF at 37° C.; format: physicochemical; details: simulated gastric fluid (SGF), simulated gastric fluid, thermodynamic from solid, SGF, 4 h, read-out: solubility (S)
Enter your answer as a number in µg/mL; do not include the unit.

stdin: Look up and report measured solubility at 4 h for this entry: CCCCOC(=O)NS(=O)(=O)c1cccc(-c2nc3c(CCC)nn(C)c3c(=O)[nH]2)c1 [compound WYQ]
stdout: 6

stdin: Supply reported solubility at 4 h belonging to this compound: CCCCOC(=O)[N-]S(=O)(=O)c1cccc(-c2nc3c(CCC)nn(C)c3c(=O)[nH]2)c1.[K+] [potassium salt crystal form B]
stdout: 7000

###

Test: Pharmacokinetic experiment in rats after gavage
Assay type: in vivo
Details: rat, blood, po; male SD rats, gavage 2 mg·kg^−1; read-out: maximum drug concentration (Cmax)
Description: After 6 healthy male SD rats were fasted and drank water freely for 12 h, the rats was administered by gavage with the potassium salt crystal form B prepared in Embodiment 1 at 2 mg·kg^−1, and blood was taken from the Bulbus oculi venous plexus at 0.2 h, 0.5 h, 1 h, 1.5 h, 2 h, 4 h, 6 h and 8 h after administration. […]
assay-endpoint: Cmax (ng/mL)
Give a bare numeral; the unit ng/mL is implied.

stdin: Supply reported Cmax belonging to this compound: CCCCOC(=O)[N-]S(=O)(=O)c1cccc(-c2nc3c(CCC)nn(C)c3c(=O)[nH]2)c1.[K+] [potassium salt crystal form B]
stdout: 334

###

assay: Dynamic solubility test in water, SGF, FaSSIF, FeSSIF at 37° C.; format: physicochemical; details: fasted-state simulated intestinal fluid (FaSSIF), thermodynamic from solid, FaSSIF, 1 h, read-out: solubility (S)
assay-endpoint: solubility at 1 h (µg/mL)
State just the number; it will be interpreted in µg/mL.

stdin: State its solubility at 1 h: CCCCOC(=O)NS(=O)(=O)c1cccc(-c2nc3c(CCC)nn(C)c3c(=O)[nH]2)c1
stdout: 1900

stdin: Supply measured solubility at 1 h of CCCCOC(=O)[N-]S(=O)(=O)c1cccc(-c2nc3c(CCC)nn(C)c3c(=O)[nH]2)c1.[K+] [potassium salt crystal form B] in your reply.
stdout: 10700
